# TARGET DESC: CT domain of yeast ACC (Saccharomyces cerevisiae, UniProt Q00955)
# Construct: made in house; host or cells: E. coli (pET24d)
# Sequence (Q00955 1429-2233): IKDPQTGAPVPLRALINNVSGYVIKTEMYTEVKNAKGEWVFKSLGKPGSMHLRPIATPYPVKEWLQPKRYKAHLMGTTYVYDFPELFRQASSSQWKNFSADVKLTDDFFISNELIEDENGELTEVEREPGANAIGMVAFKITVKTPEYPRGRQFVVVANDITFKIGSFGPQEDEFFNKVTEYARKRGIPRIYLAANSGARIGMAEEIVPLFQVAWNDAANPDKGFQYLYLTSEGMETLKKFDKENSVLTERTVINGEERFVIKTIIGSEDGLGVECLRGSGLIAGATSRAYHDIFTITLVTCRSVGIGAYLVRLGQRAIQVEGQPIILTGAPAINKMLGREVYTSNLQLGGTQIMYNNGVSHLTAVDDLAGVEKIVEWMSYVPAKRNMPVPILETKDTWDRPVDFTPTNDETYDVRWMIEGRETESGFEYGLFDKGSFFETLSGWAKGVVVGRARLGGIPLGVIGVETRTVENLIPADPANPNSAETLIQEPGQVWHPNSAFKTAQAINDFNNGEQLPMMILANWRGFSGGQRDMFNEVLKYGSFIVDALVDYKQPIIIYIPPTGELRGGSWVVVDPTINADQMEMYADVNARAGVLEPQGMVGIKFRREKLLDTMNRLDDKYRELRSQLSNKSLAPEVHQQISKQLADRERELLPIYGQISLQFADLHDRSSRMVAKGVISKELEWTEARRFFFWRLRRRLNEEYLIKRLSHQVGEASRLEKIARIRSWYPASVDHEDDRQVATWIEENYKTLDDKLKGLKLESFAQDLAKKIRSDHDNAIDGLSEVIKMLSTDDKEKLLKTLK
# MEASUREMENT PROTOCOL: CT domain enzyme kinetic assay, inhibition (decarboxylation of malonyl-CoA coupled to citrate synthase and malate dehydrogenase)
# Assay type: biochemical, S. cerevisiae
pKi: −log10 of the molar value.
OUTCOME MEASURE: pKi

Provide only the value of recorded pKi for CC(Oc1ccc(Oc2ncc(C(F)(F)F)cc2Cl)cc1)C(=O)O (stereo not shown)
~3.30

* * *

# TARGET DESC: L1705I, V1967I and L1705I/V1967I mutants of the yeast CT domain (Saccharomyces cerevisiae, UniProt Q00955)
# Construct: fused on or other part: C-terminal His-tag (pET24d)
# Sequence (Q00955 whole entry L1705I/V1967I, form open, the tested form may be a part): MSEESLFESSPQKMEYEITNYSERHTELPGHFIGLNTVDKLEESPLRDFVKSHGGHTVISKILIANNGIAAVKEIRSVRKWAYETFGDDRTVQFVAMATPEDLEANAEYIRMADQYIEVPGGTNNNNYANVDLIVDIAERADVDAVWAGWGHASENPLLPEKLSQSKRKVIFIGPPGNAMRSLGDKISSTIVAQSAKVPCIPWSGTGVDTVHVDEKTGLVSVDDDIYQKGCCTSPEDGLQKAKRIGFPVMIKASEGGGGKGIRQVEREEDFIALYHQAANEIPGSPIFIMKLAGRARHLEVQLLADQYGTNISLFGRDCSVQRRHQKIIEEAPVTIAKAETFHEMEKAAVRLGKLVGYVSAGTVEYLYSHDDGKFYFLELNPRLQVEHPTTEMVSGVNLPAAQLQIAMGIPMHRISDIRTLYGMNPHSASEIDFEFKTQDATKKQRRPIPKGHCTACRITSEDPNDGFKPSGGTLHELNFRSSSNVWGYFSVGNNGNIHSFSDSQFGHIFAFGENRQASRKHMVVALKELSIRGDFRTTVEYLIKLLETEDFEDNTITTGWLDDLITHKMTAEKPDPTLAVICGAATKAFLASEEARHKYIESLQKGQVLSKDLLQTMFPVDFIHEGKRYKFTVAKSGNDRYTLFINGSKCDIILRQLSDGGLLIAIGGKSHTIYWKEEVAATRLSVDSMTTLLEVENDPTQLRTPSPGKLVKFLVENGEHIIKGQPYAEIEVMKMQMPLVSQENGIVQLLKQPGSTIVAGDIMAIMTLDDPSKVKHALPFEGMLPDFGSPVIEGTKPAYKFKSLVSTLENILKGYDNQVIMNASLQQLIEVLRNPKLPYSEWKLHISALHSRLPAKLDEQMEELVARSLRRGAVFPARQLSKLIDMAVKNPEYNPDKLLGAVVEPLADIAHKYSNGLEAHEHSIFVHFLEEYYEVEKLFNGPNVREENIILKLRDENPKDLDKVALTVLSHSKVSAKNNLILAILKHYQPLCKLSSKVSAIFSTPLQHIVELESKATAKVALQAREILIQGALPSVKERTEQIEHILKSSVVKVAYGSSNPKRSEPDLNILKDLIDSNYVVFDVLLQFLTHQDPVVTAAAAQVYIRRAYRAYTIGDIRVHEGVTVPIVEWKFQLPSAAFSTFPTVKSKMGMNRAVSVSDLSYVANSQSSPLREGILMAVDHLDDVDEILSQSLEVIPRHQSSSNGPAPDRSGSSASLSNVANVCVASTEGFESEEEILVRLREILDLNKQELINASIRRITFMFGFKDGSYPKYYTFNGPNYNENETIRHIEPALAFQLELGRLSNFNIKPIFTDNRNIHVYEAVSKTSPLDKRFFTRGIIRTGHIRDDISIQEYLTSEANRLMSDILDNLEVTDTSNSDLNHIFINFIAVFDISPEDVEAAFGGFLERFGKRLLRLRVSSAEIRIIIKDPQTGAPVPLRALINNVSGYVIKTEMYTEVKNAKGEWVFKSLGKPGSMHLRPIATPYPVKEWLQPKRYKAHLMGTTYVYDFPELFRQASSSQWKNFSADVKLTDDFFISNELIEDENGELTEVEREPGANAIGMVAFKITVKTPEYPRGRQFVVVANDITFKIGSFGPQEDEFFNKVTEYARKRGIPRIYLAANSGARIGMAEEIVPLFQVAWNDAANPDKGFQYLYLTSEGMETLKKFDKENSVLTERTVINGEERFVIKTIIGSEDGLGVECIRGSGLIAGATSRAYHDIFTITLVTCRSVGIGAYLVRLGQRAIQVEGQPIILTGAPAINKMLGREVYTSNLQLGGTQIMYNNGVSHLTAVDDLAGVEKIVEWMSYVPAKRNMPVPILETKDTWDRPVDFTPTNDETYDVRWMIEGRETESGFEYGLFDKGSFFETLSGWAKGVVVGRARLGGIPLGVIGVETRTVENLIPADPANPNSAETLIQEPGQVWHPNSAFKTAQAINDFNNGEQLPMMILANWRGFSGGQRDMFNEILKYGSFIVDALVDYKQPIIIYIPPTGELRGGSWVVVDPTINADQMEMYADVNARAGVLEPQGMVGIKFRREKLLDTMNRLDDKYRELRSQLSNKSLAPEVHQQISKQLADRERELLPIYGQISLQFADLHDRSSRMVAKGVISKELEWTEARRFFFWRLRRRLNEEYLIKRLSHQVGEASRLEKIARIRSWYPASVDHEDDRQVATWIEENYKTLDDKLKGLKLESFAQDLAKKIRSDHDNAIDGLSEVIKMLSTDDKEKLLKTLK
# MEASUREMENT PROTOCOL: CT domain enzyme kinetic assay, inhibition of mutant CT domains
# STUDY CONDITIONS: single and double mutants; malonyl-CoA 750 μM, mutants at 20 μM
OUTCOME MEASURE: Ki

Query Ki for CC(Oc1ccc(Oc2ncc(C(F)(F)F)cc2Cl)cc1)C(=O)O (stereo not shown) [haloxyfop]
~500 µM
